- target_or_system: human AR (Homo sapiens)
- test_details: AR2 assay, agonist mode: ligand-dependent AR homodimerization (NanoBiT luciferase complementation) in stable HepG2-AR2 cells
- Format: cell-based
- conditions: sheet agonist_fits; Hill model top (efficacy); 0 given where win_model is Constant
measurement_kind: hill_tp

Task item: Field: hill_tp (human AR (Homo sapiens)). Entry: COP(=O)(OC)O/C(=C\Cl)c1cc(Cl)c(Cl)cc1Cl [Z-Tetrachlorvinphos]
Reply: 0

Task item: Then CC12CC1(C)C(=O)N(c1cc(Cl)cc(Cl)c1)C2=O (stereo not drawn) [Procymidone] ?
Reply: 0.2332

Task item: Then CCCC1COC(Cn2cncn2)(c2ccc(Cl)cc2Cl)O1 (stereo not drawn) [Propiconazole] ?
Reply: 0

Task item: Then O=c1c(-c2ccc(O)cc2)coc2cc(O)ccc12 [Daidzein] ?
Reply: 0

Task item: Then CCOC(=O)CC(SP(=S)(OC)OC)C(=O)OCC (stereo not drawn) [Malathion] ?
Reply: 0

Task item: Then CC(C)(c1ccc(O)cc1)c1ccc(O)cc1 [Bisphenol A] ?
Reply: 0.2654

Task item: Then C[C@]12CC[C@@H]3c4ccc(O)cc4C[C@@H](CCCCCCCCC[S+]([O-])CCCC(F)(F)C(F)(F)F)[C@H]3[C@@H]1CC[C@@H]2O (stereo partly drawn) [Fulvestrant] ?
Reply: 0

Task item: Then CNC(=O)O/N=C(\SC)C(=O)N(C)C [Oxamyl] ?
Reply: 0

Task item: Then N#Cc1ccc(C(c2ccc(C#N)cc2)n2cncn2)cc1 [Letrozole] ?
Reply: 5.82

----------
- target_or_system: human AR (Homo sapiens, UniProt P10275)
- Sequence (P10275 whole entry): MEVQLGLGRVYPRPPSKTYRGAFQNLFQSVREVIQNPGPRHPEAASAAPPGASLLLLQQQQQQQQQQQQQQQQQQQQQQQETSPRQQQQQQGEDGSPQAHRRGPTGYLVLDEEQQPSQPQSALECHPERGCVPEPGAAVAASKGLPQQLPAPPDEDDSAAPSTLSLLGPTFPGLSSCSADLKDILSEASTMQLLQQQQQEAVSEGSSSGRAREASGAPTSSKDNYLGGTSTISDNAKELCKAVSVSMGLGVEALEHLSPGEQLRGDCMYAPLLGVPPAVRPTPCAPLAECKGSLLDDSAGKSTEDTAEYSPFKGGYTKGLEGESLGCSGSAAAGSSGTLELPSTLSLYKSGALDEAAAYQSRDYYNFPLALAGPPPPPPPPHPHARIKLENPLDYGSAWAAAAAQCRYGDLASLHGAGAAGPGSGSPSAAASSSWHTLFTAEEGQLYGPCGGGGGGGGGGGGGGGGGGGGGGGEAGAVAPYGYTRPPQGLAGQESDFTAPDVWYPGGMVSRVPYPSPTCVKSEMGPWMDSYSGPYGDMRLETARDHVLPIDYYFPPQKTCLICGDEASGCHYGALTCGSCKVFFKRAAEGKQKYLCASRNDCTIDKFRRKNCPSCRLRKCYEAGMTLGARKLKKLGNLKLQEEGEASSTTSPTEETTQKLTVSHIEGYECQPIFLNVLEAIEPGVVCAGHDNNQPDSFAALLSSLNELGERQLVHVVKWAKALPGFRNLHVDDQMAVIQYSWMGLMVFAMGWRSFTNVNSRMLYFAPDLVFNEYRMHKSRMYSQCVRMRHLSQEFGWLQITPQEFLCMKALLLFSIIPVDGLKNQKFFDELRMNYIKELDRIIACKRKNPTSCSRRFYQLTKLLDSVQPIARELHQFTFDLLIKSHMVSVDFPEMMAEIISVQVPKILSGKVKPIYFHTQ
- Sequence (P10275 whole entry): as above
- test_details: AR2 assay, agonist mode: ligand-dependent AR homodimerization (NanoBiT luciferase complementation) in stable HepG2-AR2 cells
- Format: cell-based
- conditions: sheet agonist_fits; winning concentration-response model (Constant, Hill, Gain-Loss)
measurement_kind: win_model

Example compounds with recorded win_model:
{"columns": ["compound", "measurement_kind", "value_observed"],
 "data": [
  ["CC/C(=C(\\c1ccc(O)cc1)c1ccc(OCCN(C)C)cc1)c1ccccc1 [Afimoxifene (4-Hydroxytamoxifen)]", "win_model", "Constant"],
  ["CC(C)(c1ccc(O)cc1)c1ccc(O)cc1", "win_model", "Gain-Loss"],
  ["O=c1c(-c2ccc(O)cc2)coc2cc(O)cc(O)c12", "win_model", "Constant"],
  ["O=[N+]([O-])c1c(Cl)c(Cl)c(Cl)c(Cl)c1Cl", "win_model", "Gain-Loss"],
  ["CC1(C)C(C=C(Cl)Cl)C1C(=O)OCc1cccc(Oc2ccccc2)c1 (stereo not shown)", "win_model", "Constant"],
  ["CCCCOC(=O)c1ccc(O)cc1", "win_model", "Gain-Loss"]
]}

Task item: Would you mind telling me what win_model value was observed for CCCN(CCC)c1c([N+](=O)[O-])cc(C(F)(F)F)cc1[N+](=O)[O-] ?
Reply: Gain-Loss

Task item: Then C[C@]12CC[C@@H]3c4ccc(O)cc4C[C@@H](CCCCCCCCC[S+]([O-])CCCC(F)(F)C(F)(F)F)[C@H]3[C@@H]1CC[C@@H]2O (stereo partly shown) ?
Reply: Constant

----------
- target_or_system: human AR (Homo sapiens)
- test_details: AR2 assay, agonist mode: ligand-dependent AR homodimerization (NanoBiT luciferase complementation) in stable HepG2-AR2 cells
- Assay type: cell-based
measurement_kind: max_med
Give only the figure.

Task item: Would you mind telling me what max_med value was observed for C[C@]1(O)CC[C@H]2[C@@H]3CCC4=CC(=O)CCC4=C3C=C[C@@]21C ?
Reply: 6.236

Task item: Then CCCSP(=O)(OCC)SCCC ?
Reply: -0.01755

Task item: Then CCC(=O)O[C@H]1CC[C@H]2[C@@H]3CCC4=CC(=O)CC[C@]4(C)[C@H]3CC[C@]12C [Testosterone propionate] ?
Reply: 2.0998

Task item: Then C[C@]12C=CC3=C4CCC(=O)C=C4CC[C@H]3[C@@H]1CC[C@@H]2O ?
Reply: 6.198
